Measured viability, T/C, listed per entry for reference.
- Test system: 653999-131-R-J2-PDC complex spheroids, growth % test/control;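 note: spheroids exposed to agents for seven days; 100% = DMSO vehicle control viability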
- assayNotes: Anticancer human tumor 653999-131-R-J2-PDC patient-derived lung adenocarcinoma cell line growth inhibition [AhR]
- conditionParameters: second compound 0.316 µM; first compound 0.00949 µM; hits give low values
# unit: % | format: bare number

Study these solved cases before continuing.
[[record]]
compound = "Nc1ncn(C2CC(O)C(CO)S2)c(=O)n1 (configuration not stated) + Cc1cncc(-c2nc(NCCc3c[nH]c4ccccc34)c3ncn(C(C)C)c3n2)c1"
unitsymbol = "%"
reported = 101

[[record]]
compound = "Nc1ncn(C2CC(O)C(CO)S2)c(=O)n1 (configuration not stated) + CC(CO)NC(=O)c1cc(-c2ccc(Cl)cc2)nn(-c2cnn(C)c2)c1=O"
unitsymbol = "%"
reported = 134

[[record]]
compound = "Nc1ncn(C2CC(O)C(CO)S2)c(=O)n1 (configuration not stated) + Cc1ccccc1N=Nc1ccc(NC(=O)c2ccnn2C)c(C)c1"
unitsymbol = "%"
reported = 105

[[record]]
compound = "O=C(C=Cn1cnc(-c2cc(C(F)(F)F)cc(C(F)(F)F)c2)n1)NNc1cnccn1 + CC(CO)NC(=O)c1cc(-c2ccc(Cl)cc2)nn(-c2cnn(C)c2)c1=O"
unitsymbol = "%"
reported = 109

[[record]]
compound = "CC(C)CC(NC(=O)C(Cc1ccccc1)NC(=O)c1cnccn1)B(O)O (configuration not stated) + CC(CO)NC(=O)c1cc(-c2ccc(Cl)cc2)nn(-c2cnn(C)c2)c1=O"
unitsymbol = "%"
reported = 64.6

[[record]]
compound = "O=C(C=Cn1cnc(-c2cc(C(F)(F)F)cc(C(F)(F)F)c2)n1)NNc1cnccn1 + Cc1cncc(-c2nc(NCCc3c[nH]c4ccccc34)c3ncn(C(C)C)c3n2)c1"
unitsymbol = "%"
reported = 85

[[record]]
compound = "CC(C)CC(NC(=O)C(Cc1ccccc1)NC(=O)c1cnccn1)B(O)O (configuration not stated) + Cc1cncc(-c2nc(NCCc3c[nH]c4ccccc34)c3ncn(C(C)C)c3n2)c1"
unitsymbol = "%"
reported = 113

[[record]]
compound = "CC(C)CC(NC(=O)C(Cc1ccccc1)NC(=O)c1cnccn1)B(O)O (configuration not stated) + Cc1ccccc1N=Nc1ccc(NC(=O)c2ccnn2C)c(C)c1"
unitsymbol = "%"
reported = 91

[[record]]
compound = "CCN(c1cc(-c2ccc(CN3CCOCC3)cc2)cc(C(=O)NCc2c(C)cc(C)[nH]c2=O)c1C)C1CCOCC1 + CC(CO)NC(=O)c1cc(-c2ccc(Cl)cc2)nn(-c2cnn(C)c2)c1=O"
unitsymbol = "%"
reported = 119

[[record]]
compound = "CCc1c2c(nc3ccc(O)cc13)-c1cc3c(c(=O)n1C2)COC(=O)[C@]3(O)CC + CC(CO)NC(=O)c1cc(-c2ccc(Cl)cc2)nn(-c2cnn(C)c2)c1=O"
unitsymbol = "%"
reported = 42.3


*Q* Given the compound O=C(C=Cn1cnc(-c2cc(C(F)(F)F)cc(C(F)(F)F)c2)n1)NNc1cnccn1 + Cc1ccccc1N=Nc1ccc(NC(=O)c2ccnn2C)c(C)c1 , what is its reported viability, T/C?
*A* 91.8

*Q* Given the compound CCN(c1cc(-c2ccc(CN3CCOCC3)cc2)cc(C(=O)NCc2c(C)cc(C)[nH]c2=O)c1C)C1CCOCC1 + Cc1cncc(-c2nc(NCCc3c[nH]c4ccccc34)c3ncn(C(C)C)c3n2)c1 , what is its reported viability, T/C?
*A* 121
